The reported numbers originate from the supplement of paper PMC9170038.

test system: MS2 coat protein; assay: apparent KD of MS2 coat protein; designed switch direction (-1 OFF switch, 1 ON switch): -1; higher = weaker reporter binding; conditions: Eterna round: R95; input ligand: none
apparent KD of MS2 coat protein vs 80 nM: at or above is MET, below is NOT MET.

Task: Hello, I need to know if UAGUGGGUACGAAGGAGUAGUUUGAGCGUACGUUCUGUAACAUGAGGAUCACCCAUGUAGCUUUUUGCUCGACUUAU [JR_SV3TOV2_Sub037] (puzzle: Sensor v3, turn-off variant 2) has measured apparent KD of MS2 coat protein not below 80 nM. Thanks!
Output: NOT MET

Task: Hello, I need to know if AUUUUAACAUAGGAUAUCGAAUUUAUCAUUUAACGAGAAGGAUGAACAUGAGGAUCACCCAUGUGGUAUCAUGG [JL-ex6-3.01] (puzzle: Exclusion 6) has measured apparent KD of MS2 coat protein not below 80 nM. Thanks!
Output: MET

Task: Hello, I need to know if CUAGAUCUUCGGAUCUAGUACAUGAGGAUCACCCAUGUUACGAGCAGAUCUUCAUACAAGCUUUUUGCUCGUCUUAU [Sensor v3 - Turn-off variant 1 - 33] (puzzle: Sensor v3, turn-off variant 1) has measured apparent KD of MS2 coat protein not below 80 nM. Thanks!
Output: NOT MET

Task: Hello, I need to know if AAUACUAACACGAAAGUGUUAGUAAAAUAAGCUUGUGGUACAUGAGGAUCACCCAUGUCCUCAUAAGCUCGUCUUAU [Mat - Sensor v3 - Turn-off var 2 - D43] (puzzle: Sensor v3, turn-off variant 2) has measured apparent KD of MS2 coat protein not below 80 nM. Thanks!
Output: NOT MET

Task: Hello, I need to know if UAGAAUCGAGGAUAUACAUGAGGAUCACCCAUGUGUGGCCACUUGGUGUGGUCGUCAGGUAGAAGGCGAUUACA [Exclusion 3 - Mod of Jieux's Gilly Gone Silly 23 v.4] (puzzle: Exclusion 3) has measured apparent KD of MS2 coat protein not below 80 nM. Thanks!
Output: NOT MET

Task: Hello, I need to know if ACAAGCUUUUUGCUCGUCUACAUGAGGAUCACCCAUGUAGUGUGUUAGUGGUGAAGAUAGAUUGAGCGUAGUAGGUA [JR_SV3TOV1_Sub072] (puzzle: Sensor v3, turn-off variant 1) has measured apparent KD of MS2 coat protein not below 80 nM. Thanks!
Output: MET

Task: Hello, I need to know if AAUAACAAGCAGAUCCUAAACAUGAGGAUCACCCAUGUGCUCGUCUUGUAAAGUACUAUCACGAAAGUGAUAGUACA [Sensor 3, v1 - 59] (puzzle: Sensor v3, turn-off variant 1) has measured apparent KD of MS2 coat protein not below 80 nM. Thanks!
Output: NOT MET

Task: Hello, I need to know if AUGAGACAUGAGGAUCACCCAUGUGAGGAUAUGUAUGGAUGGAGGAAAGAAUGAGAGAACAGAAGGCACGGAGG [JR_Exclu1_Sub065] (puzzle: Exclusion 1) has measured apparent KD of MS2 coat protein not below 80 nM. Thanks!
Output: MET

Task: Hello, I need to know if AGAAGUAGCAACCGAUCCUACAUGAGGAUCACCCAUGUAGCAAGACGUGCACGCGAAGCUCGUCAGACUACCAGAUG [salish99_TOv1_r3_022] (puzzle: Sensor v3, turn-off variant 1) has measured apparent KD of MS2 coat protein not below 80 nM. Thanks!
Output: MET

Task: Hello, I need to know if AGUAGAUCUACGCUUGCGUGGAUCUGCUAGGCAGGUGUUACAUGAGGAUCACCCAUGUCCUCAUUUGUUCGUCUUAU [JL turnoff v2 99.17] (puzzle: Sensor v3, turn-off variant 2) has measured apparent KD of MS2 coat protein not below 80 nM. Thanks!
Output: MET

Task: Hello, I need to know if CCAGCGUAUGUGAGGAUAUGCUGGUCCUUGGAUCAGCAGAAGGCACAUGAGGAUCACCCAUGUGGUGACGUUGG [JL bmx4 3.44] (puzzle: Brourd's mod of Exclusion 4) has measured apparent KD of MS2 coat protein not below 80 nM. Thanks!
Output: MET

Task: Hello, I need to know if AAAUGCAAGCAAAGAUCUUACAUGAGGAUCACCCAUGUGCUCGUCUUAUAAAGUACUAUCACGAAAGUGAUAGUACA [Sensor 3, v1 - 28] (puzzle: Sensor v3, turn-off variant 1) has measured apparent KD of MS2 coat protein not below 80 nM. Thanks!
Output: NOT MET
